Collected pIC50 for Aminopeptidase N (Sus scrofa) across several studies; compounds listed below.
# TARGET_OR_SYSTEM: Aminopeptidase N (Sus scrofa)
# Sequence (P15145 whole entry): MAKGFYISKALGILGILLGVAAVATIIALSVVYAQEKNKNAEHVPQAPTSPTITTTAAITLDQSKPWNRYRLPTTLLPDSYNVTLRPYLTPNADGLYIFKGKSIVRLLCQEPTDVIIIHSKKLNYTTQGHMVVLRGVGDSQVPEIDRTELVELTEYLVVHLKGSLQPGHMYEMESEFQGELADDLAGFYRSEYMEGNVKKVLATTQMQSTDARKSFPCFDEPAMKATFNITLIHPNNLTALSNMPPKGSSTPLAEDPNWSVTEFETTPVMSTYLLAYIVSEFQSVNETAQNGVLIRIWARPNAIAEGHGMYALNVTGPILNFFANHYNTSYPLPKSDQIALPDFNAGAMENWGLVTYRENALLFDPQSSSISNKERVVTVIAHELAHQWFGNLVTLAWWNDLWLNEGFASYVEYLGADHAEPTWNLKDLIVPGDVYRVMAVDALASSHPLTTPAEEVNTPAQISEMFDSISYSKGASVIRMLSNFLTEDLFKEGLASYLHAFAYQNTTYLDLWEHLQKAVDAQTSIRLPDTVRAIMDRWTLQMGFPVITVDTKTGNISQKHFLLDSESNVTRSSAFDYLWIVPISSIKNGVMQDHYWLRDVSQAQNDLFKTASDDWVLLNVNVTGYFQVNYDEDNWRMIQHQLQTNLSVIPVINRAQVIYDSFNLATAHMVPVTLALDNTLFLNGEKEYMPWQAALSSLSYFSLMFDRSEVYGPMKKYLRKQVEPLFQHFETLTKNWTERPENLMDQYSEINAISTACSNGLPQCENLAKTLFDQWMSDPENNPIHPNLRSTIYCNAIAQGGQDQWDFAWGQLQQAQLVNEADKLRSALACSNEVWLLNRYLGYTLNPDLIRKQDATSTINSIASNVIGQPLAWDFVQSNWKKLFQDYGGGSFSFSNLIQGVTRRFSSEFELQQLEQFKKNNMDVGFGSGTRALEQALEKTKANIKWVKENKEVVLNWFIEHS
Give bare numbers, as −log10 of the molar value.

Examples from the recorded data:
# pIC50 lookup, item CC(CC(=O)O)NC(=O)C(CC(=O)NO)Cc1ccccc1 (stereo in doubt; 6)
6.35

// repeat for CCCNC(=O)C[C@@H](NC(=O)/C=C/c1ccccc1)C(=O)O and report
2.04

// repeat for Cc1ccccc1NC(=O)N[C@@H](CC(C)C)C(=O)NO and report
6.74

// repeat for NCCCCCC(=O)NC[C@H](N)Cc1ccccc1 and report
3.78

// repeat for Nc1nc2c(ncn2S(=O)(=O)c2cccc(C(=O)O)c2)c(=O)[nH]1 and report
3.69

Can you give me pIC50 for all of these, one by one?
1. Cc1ccc(-c2nnc(NC(=O)[C@@H](C)NC(=O)/C=C/c3ccccc3)s2)cc1
2. COC(=O)[C@H](Cc1c[nH]c2ccccc12)NC(=O)CN1C(=O)CC[C@H](NC(=O)c2cc(OC)c(OC)c(OC)c2)C1=O
3. COc1cc(C(=O)N[C@H](CCC(=O)O)C(=O)NCc2cccc(I)c2)cc(OC)c1OC

1: 3.69; 2: 4.37; 3: 4.18

Can you give me pIC50 for all of these, one by one?
1. Cc1ccc(CNC(=O)N[C@@H](CC(C)C)C(=O)NO)cc1
2. CC(C)C[C@H](NC(=O)NCc1ccccc1F)C(=O)NO

[6.39, 5.86]

---

Collected log10 of IC50 for Aminopeptidase N (Sus scrofa, UniProt P15145) across several studies; compounds listed below.
Values reflect log10 of reported IC50 (µM).

Examples from the recorded data:
Enter reported log10 of IC50 observed with Aminopeptidase N (Sus scrofa, UniProt P15145) for COc1ccc(S(=O)(=O)N2C[C@@H](NC(=O)CNC(=O)[C@@H](N)Cc3ccccc3)C[C@H]2C(=O)NO)cc1.Cl
1.97

// repeat for C/C(=N\NC(=O)Cn1c(=O)c(C)nc2ccccc21)c1ccc([N+](=O)[O-])cc1 and report
2.59

// repeat for COc1ccccc1NC(=O)N[C@@H](CC(C)C)C(=O)NO and report
-0.89

Can you give me log10 of IC50 for all of these, one by one?
1. N[C@@H](Cc1ccccc1)C(=O)N[C@H]1CCC(=O)N(CC(=O)N[C@@H](Cc2ccccc2)C(=O)OCc2ccccc2)C1=O
2. COc1cc(C(=O)N[C@H](CCC(=O)O)C(=O)NCCCl)cc(OC)c1OC
3. CC(C)C[C@H](N)C(=O)NCC(=O)N[C@H]1C[C@@H](C(=O)NO)N(S(=O)(=O)c2ccccc2)C1.Cl
4. O=C(CN1C(=O)C2(OCCO2)c2ccccc21)NO
5. O=C(N[C@@H](C(=O)NO)c1ccccc1)C1CCN(c2ncnc3[nH]ccc23)CC1
6. COC(=O)[C@@H](NC(=O)CN1C(=O)CC[C@H](NC(=O)c2cc(OC)c(OC)c(OC)c2)C1=O)C(C)C

1: 0.81; 2: 2.91; 3: 1.92; 4: 2.32; 5: -0.41; 6: 1.33

---

Collected IC50 for Aminopeptidase N (Sus scrofa, UniProt P15145) across several studies; compounds listed below.
One number for each entry, in µM.

Can you give me IC50 for all of these, one by one?
1. Cc1ccc(Cn2cc(CNC(=O)N[C@@H](CC(C)C)C(=O)NO)nn2)cc1
2. CCCCCCNC(=S)P(=O)(O)C(N)C(C)C (centres undefined)
3. COC(=O)[C@@H](Cc1ccccc1)NC(=O)CN1C(=O)CC[C@H](NC(=O)c2cc(OC)c(OC)c(OC)c2)C1=O

1. 3.6
2. 1.18
3. 46.2

---

# TARGET_OR_SYSTEM: Aminopeptidase N (Sus scrofa)
# Sequence (P15145 whole entry): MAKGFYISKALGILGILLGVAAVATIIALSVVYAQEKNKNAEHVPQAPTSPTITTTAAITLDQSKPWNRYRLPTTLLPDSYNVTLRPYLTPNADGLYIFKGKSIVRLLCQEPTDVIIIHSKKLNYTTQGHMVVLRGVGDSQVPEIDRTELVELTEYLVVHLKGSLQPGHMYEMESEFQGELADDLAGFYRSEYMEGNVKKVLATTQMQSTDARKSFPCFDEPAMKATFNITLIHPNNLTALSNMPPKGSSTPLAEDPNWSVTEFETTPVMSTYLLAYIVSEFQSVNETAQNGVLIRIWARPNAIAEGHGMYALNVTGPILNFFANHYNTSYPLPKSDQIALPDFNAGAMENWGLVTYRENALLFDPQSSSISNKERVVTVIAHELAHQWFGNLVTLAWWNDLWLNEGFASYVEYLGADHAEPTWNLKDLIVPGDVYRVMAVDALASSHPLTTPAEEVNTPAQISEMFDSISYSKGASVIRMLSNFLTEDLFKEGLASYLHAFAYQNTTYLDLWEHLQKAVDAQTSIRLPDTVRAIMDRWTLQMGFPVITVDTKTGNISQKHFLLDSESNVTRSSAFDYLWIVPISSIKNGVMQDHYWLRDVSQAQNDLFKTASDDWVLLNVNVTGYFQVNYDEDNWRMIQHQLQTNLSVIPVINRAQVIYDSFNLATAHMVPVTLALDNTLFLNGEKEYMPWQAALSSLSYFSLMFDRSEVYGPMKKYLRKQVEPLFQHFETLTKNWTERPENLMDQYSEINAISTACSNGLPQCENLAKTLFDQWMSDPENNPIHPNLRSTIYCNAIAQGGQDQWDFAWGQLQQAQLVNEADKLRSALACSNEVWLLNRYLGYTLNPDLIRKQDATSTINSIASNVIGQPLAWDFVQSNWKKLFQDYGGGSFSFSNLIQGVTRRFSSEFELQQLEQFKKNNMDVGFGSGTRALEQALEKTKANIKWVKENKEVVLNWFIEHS
Collected pIC50 for Aminopeptidase N (Sus scrofa) across several studies; compounds listed below.
Answers are plain numbers, as −log10 of the molar value.

# pIC50 lookup, item NNC(=O)/C(=C/c1ccc([N+](=O)[O-])cc1)NC(=O)c1ccc(Br)cc1
3.36

// repeat for CC(C)CNC(=S)P(=O)(O)C(N)C(C)C (stereo not drawn) and report
5.72

// repeat for CC(C)[C@H](NC(=O)CN1C(=O)C2(OCCO2)c2cc(Br)ccc21)C(=O)NO and report
3.65

Can you give me pIC50 for all of these, one by one?
1. NCC(=O)N[C@H]1CC(=O)N(CC(=O)NO)C1=O
2. COc1ccc(NC(=O)N[C@@H](CC(C)C)C(=O)NO)cc1F

[6.00, 6.38]

Can you give me pIC50 for all of these, one by one?
1. CC(C)[C@H](NC(=O)CN1C(=O)CC[C@H](NC(=O)[C@@H](N)Cc2ccccc2)C1=O)C(=O)OCc1ccccc1
2. N[C@@H](C(=O)N[C@@H](Cc1cc2ccccc2[nH]1)C(=O)O)[C@@H](O)c1ccc([N+](=O)[O-])cc1
3. CC(C)C[C@H](NC(=O)N[C@@H](Cc1ccc(O)cc1)C(=O)O)C(=O)NC[C@H](N)Cc1ccccc1
4. COc1cccc(/C=N/NC(=O)Cn2c(=O)c(C)nc3ccccc32)c1O
5. CC(C)C[C@H](NC(=O)[C@H](N)[C@@H](O)c1ccc([N+](=O)[O-])cc1)C(=O)NO

1: 4.52; 2: 3.79; 3: 3.97; 4: 4.09; 5: 4.27
